test system: MDA-MB-435; test: Cytotoxicity against human MDA-MB-435 cells assessed as cell viability after 72 hrs by commercial absorbance assay; type: functional, cell-based; conditions: MDA-MB-435, 72 h
quantity: pIC50
As a rule, pIC50 stands for the negative log10 of the concentration, concentration in M.

Recorded results for 5 compounds are shown here.
C[C@]12C(=O)O[C@@H]3C[C@H]4c5occc5C(=O)C[C@H]4[C@@]4(COC1(O)C[C@@H]4O)[C@@H]32	5.19
C[C@]12C(=O)O[C@@H]3C[C@@]4(O)c5occc5C(=O)C[C@H]4C4(CCC1(O)OC4)[C@@H]32 (some centres not stated)	5.21
C[C@]12C(=O)O[C@@H]3C[C@H]4C5=C(CC[C@H]4[C@@]4(CCC1(O)OC4)[C@@H]32)C(=O)CO5	6.18
C[C@@]12CC[C@@H]3C(=C[C@H]4OC(=O)[C@]5(C)[C@H]4[C@]34CCC5(O)OC4)[C@@H]1OC[C@H]2O	5.78
CC[C@]1(O)C[C@@H]2CN(CCc3c([nH]c4ccccc34)[C@@](C(=O)OC)(c3cc4c(cc3OC)N(C)[C@H]3[C@@](O)(C(=O)OC)[C@H](OC(C)=O)[C@]5(CC)C=CCN6CC[C@]43[C@@H]65)C2)C1	9.31

Task item: Look up pIC50 for this compound: C[C@@]12CC[C@@H]3C(=C[C@H]4OC(=O)[C@]5(C)[C@H]4[C@]34CCC5(O)OC4)[C@]1(O)OC[C@H]2O
Reply: 5.90

Where do the numbers come from? From ChEMBL document CHEMBL3580583.
